B1: library; a variant is named by its letters at N, in order (parent)
chain: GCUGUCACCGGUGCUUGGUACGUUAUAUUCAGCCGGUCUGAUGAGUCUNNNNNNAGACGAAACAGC

# Variants of: B1
# experiment-summary: normalized RNA/DNA level without ligand (relative to sTRSVctl = 100) (log10 (% of sTRSVctl)); HEK293T overexpressing SLC46A1; higher = less ribozyme self-cleavage, higher mRNA level
# assay-context: without (6R,S)-folinic acid; ligand present: no
Reported normalized RNA/DNA level without ligand (log10) values are given for each entry in this list.
Give only the figure.

In the examples that follow, each entry is paired with its recorded normalized RNA/DNA level without ligand (log10).
variant-name	experimental-value
CCCUUC	2.14
GAGUGG	1.91
AGAGAA	1.95
UCGCGC	2.05
ACAGUA	1.95
CAUCAU	2.02

Input line: Which normalized RNA/DNA level without ligand (log10) value belongs to `CCCCCA` ?
Output line: 2.02

Origin of the recorded values: the supplement of paper PMC6757056
